B1: Serine/threonine-protein kinase A-Raf, residues 21 to 89; numbered along this chain, P10398 (parent)
chain: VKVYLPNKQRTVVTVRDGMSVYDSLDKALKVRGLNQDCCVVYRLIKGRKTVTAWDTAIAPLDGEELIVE

# Variants of: B1
# EXPERIMENT: abundance fitness (aPCA) (normalised: wild type 0, dead -1); higher = more abundant; growth selection in yeast, the domain comes from the species named
# TEST_CONTEXT: Homo sapiens

>  <VARIANT_SPEC>
I58A

>  <abundance fitness>
-0.201

$$$$
>  <VARIANT_SPEC>
V21F

>  <abundance fitness>
-0.392

$$$$
>  <VARIANT_SPEC>
R32W

>  <abundance fitness>
-0.203

$$$$
>  <VARIANT_SPEC>
D37A

>  <abundance fitness>
-0.39

$$$$
